Ref: ChEMBL document CHEMBL1201862

- Test system: SNB-19
- protocolSummary: NCI tumour cell line growth inhibition, 48 h
Calls of active or inactive are those of the source. Cut-off read from the data, not from the text of the source: active = GI50 up to about 1.1 µM and inactive = higher.
assayReadout: GI50

For CN(C)c1ccc(Cc2cc(C(C)(C)C)cc(C(C)(C)C)c2O)cc1 , what is its reported GI50? 21.6 µM (inactive)

Consider next the compound CCOP1(=O)C=C(C)C(Cl)=C(C)C1 (stereo unspecified) in the same way. > 100 µM (inactive)

Do the same for Cc1nn(C(=O)c2ccccc2O)c2c1C(c1ccc3ccccc3c1O)SC(=N)N2 (stereo unspecified) please 8.61 µM (inactive)

Consider next the compound CC1(C)C(c2ccccc2)C12CCC1(C2=O)C(c2ccccc2)C1(C)C (stereo unspecified) in the same way. 28.8 µM (inactive)

Subsequent entry: CN(C)CCNC(=O)c1cccc2ncc(-c3ccccc3)nc12 17.1 µM (inactive)

Now consider CC(=O)OCc1cncn1S(=O)(=O)c1ccc(C)cc1 . > 100 µM (inactive)

* * *

- Tested on: NCI-H23
- protocolSummary: NCI tumour cell line growth inhibition, 48 h
Active and inactive are the calls of the source. Cut-off read from the data, not from the text of the source: active = GI50 up to about 1.1 µM and inactive = higher.
Please provide measured GI50 for the entries that follow.

Quick one: GI50 for CCCCSN1C(=O)c2ccccc2C1=S ? > 100 µM (inactive)

Field entry: COc1ccc2cc1Oc1ccc(cc1)CC1c3cc(c(OC)cc3CCN1C)Oc1c3c(cc4c1C(C2)N(C)CC4)OCO3 (stereo unspecified) 17 µM (inactive)

Follow-up entry: CN(C)S(=O)(=O)n1ccnc1 > 100 µM (inactive)

Proceed to O=C(Nc1ccc(Cl)cc1)NS(=O)(=O)c1ccc2c(c1)CCC2 28.1 µM (inactive)

Now this one: CC(=O)O[C@]1(C)OC(=O)[C@@H](C)N1[N+](=O)[O-] > 100 µM (inactive)

// same read-out, input: O=C1O/C(=C(/Br)c2ccc(Cl)c(Cl)c2)c2ccccc21 > 10 µM (inactive)

* * *

Give measured GI50 for each item. Keep answers brief.
- System: OVCAR-5
- protocolSummary: NCI tumour cell line growth inhibition, 48 h
The source made the active and inactive calls. Cut-off read from the data, not from the text of the source: active = GI50 up to about 1.1 µM and inactive = higher.

Please look up its GI50: Clc1ccccc1C(n1cc(Br)cn1)n1cc(Br)cn1 11.4 µM (inactive)

How about CCN(CC)CCCCC1CCN(CC(=O)N2CC(C)C(=O)Nc3ccccc32)CC1 (stereo not given) ? > 100 µM (inactive)

Now the same for [O-][n+]1onc(-c2ccccc2)c1CN1CCOCC1 > 100 µM (inactive)

Likewise for O=c1oc2ccccc2c(Nc2ccc3c(c2)Oc2ccccc2O3)c1[N+](=O)[O-] ? 35.6 µM (inactive)

Would you kindly repeat that for CC(C)CC(=O)N1CCN(C(=O)CC(C)C)c2ccccc21 ? > 100 µM (inactive)

Next record, please: CC(=O)O[C@H]1C#C/C=C\C#CC[C@@H]2C(=O)N[C@@H]12 > 100 µM (inactive)

Try this compound next: CCOC(=O)CC(N1CC1)N1CC1 > 10 µM (inactive)

Would you mind doing CC1(C)C(c2ccccc2)C12CCC1(C2=O)C(c2ccccc2)C1(C)C (stereo not given) as well? 24.7 µM (inactive)

Another compound to look at: COC(=O)[C@H]1[C@@H](C(C)C)O[C@@H](C(C)C)O[C@H]1C(F)(F)F > 100 µM (inactive)

What do you have for CCOC(=O)C1=C(C)N(CC(C)C)C2(O)C(OC)CC(=O)C3C(=O)N(c4ccccc4)C(=O)C132 (stereo not given) ? > 100 µM (inactive)

* * *

- System: NCI-H23
- protocolSummary: NCI tumour cell line growth inhibition, 48 h
Calls of active or inactive are those of the source. No stated cut-off is given here; in the data, active = GI50 up to about 1.1 µM and inactive = higher.
Kindly state GI50 for each of the entries shown.

Recorded GI50 for O=c1[nH]cnc(NC2C=C(CO)C(O)C2O)c1[N+](=O)[O-] (stereo unspecified) , please? > 100 µM (inactive)

# iterate: COC(=O)[C@H]1[C@@H](C(C)C)O[C@@H](C(C)C)O[C@H]1C(F)(F)F > 100 µM (inactive)

Can you check CN(C)c1ccc(/C=C(\NC(=O)c2ccccc2)c2nn(C)c(=O)o2)cc1 next? > 100 µM (inactive)

Same question for O=[N+]([O-])c1ccccc1[S+]([O-])c1ccccc1 (stereo unspecified) please. 44.5 µM (inactive)

// query: COc1ccc(-c2cc(O)c3c(C)ccnc3n2)cc1 19 µM (inactive)

Can you handle CCC/C=C\C=C\C1(NS(=O)(=O)c2ccc(C)cc2)CCC(C(C)(C)C)CC1 (stereo unspecified) next? 14.1 µM (inactive)

Next entry: CC(Sc1ccccc1)C(CO)(CO)[N+](=O)[O-] (stereo unspecified) 16.8 µM (inactive)

Same question for CCN(CC)CCOc1ccc(C(=C2CCCCC2)c2ccc(OCCN(CC)CC)cc2)cc1 please. 1.86 µM (inactive)

Lookup c1ccc2c(c1)nc1n2CCNC1 > 100 µM (inactive)

Try the compound COc1cc(/C=C/C(=O)Oc2ccccc2)ccc1C(=O)O/C=C/c1ccccc1 > 100 µM (inactive)

Entry CC(C)CC(=O)N1CCN(C(=O)CC(C)C)c2ccccc21 please > 100 µM (inactive)

* * *

Exercise: state measured GI50 for each of the compounds provided.
- Tested on: NCI-H460
- protocolSummary: NCI tumour cell line growth inhibition, 48 h
The source made the active and inactive calls. Cut-off read from the data, not from the text of the source: active = GI50 up to about 1.1 µM and inactive = higher.

So what's the measured GI50 for this one? CC(=O)C1CC=C(C)CC1 (centres undefined) > 100 µM (inactive)

Note, next up: O=C(N/C(=C\NC1=NCCS1)C(=O)N1CSC[C@@H]1C(=O)O)c1ccccc1 > 100 µM (inactive)

Subsequent entry: O=C1c2ccc3c4ccccc4n(-c4ccccc4)c3c2C(=O)N1c1ccc(Cl)cc1 > 100 µM (inactive)

Now give it for CCc1ccc(CCC(=O)O)nc1 too. > 100 µM (inactive)

Same lookup for O=C(NN1C(=O)c2ccccc2C1=O)c1ccccc1Nc1ccccc1C(=O)NN1C(=O)c2ccccc2C1=O , please. > 100 µM (inactive)

Here is the next compound: N=C(N)SCc1ccc(N=C=S)cc1 14.9 µM (inactive)

Again, but for CCN(C(=O)N[C@@H](Cc1ccccc1)C(=O)N[C@@H](CC(C)C)C(=O)NC)c1ccccc1 > 100 µM (inactive)

And CCCCSN1C(=O)c2ccccc2C1=S ? > 100 µM (inactive)

Same question for Cc1nc(O)nc(O)c1/C=C/C(=O)O please. > 1000 µM (inactive)

Quick one: C/C(Nc1ccc(Cl)cc1)=C1/CCOC1=O > 31.4 µM (inactive)

Lookup COc1cc2c(cc1OC)C(C(=O)O)C(c1ccccc1)N(C)C2=O (centres undefined) > 100 µM (inactive)

Also check O=C1O/C(=C\c2ccc(O)c(Br)c2)C(c2ccc(O)c(Cl)c2)=C1Br 17.1 µM (inactive)

Try the compound CCN(CC)C1CC(n2cc(C)c(=O)[nH]c2=O)OC1CO (centres undefined) > 100 µM (inactive)

Query Cc1c(C)c2ccc(OCC(O)COC(C)C)c(C)c2oc1=O (centres undefined) next 16.7 µM (inactive)

For CN(C)c1n/c(=N/c2ncn[nH]2)ss1 then? > 100 µM (inactive)

Then this compound: N=C(N)SCc1cn2ccccc2n1 > 100 µM (inactive)

Consider next the compound CC(=O)O[C@]1(C)OC(=O)[C@@H](C)N1[N+](=O)[O-] in the same way. 39.2 µM (inactive)

And the next one, C[n+]1c(-c2ccc(/C=N\Nc3ccnc(N/N=C/c4ccc(-c5cn6ccsc6[n+]5C)cc4)n3)cc2)cn2ccsc21 ? 23 µM (inactive)

Okay, and Cc1nc(Cl)c(C)c(Cl)n1 ? > 100 µM (inactive)

Record: Cc1ccc(SCC(=O)C2=C(O)CCCC2=O)cc1 > 100 µM (inactive)

Now consider Cc1ccc(/N=C2\SC(=NN(C)C)S\C2=N/c2ccc(C)cc2)cc1 and answer again. > 100 µM (inactive)

Lookup CCOC(=O)NC(Nc1ncccn1)(C(F)(F)F)C(F)(F)F > 100 µM (inactive)

Same thing, different compound: CCOC(=O)CCN1C(=O)c2c(NC(=O)C(=O)O)cccc2S1(=O)=O > 100 µM (inactive)

Request: CSC1NNC2(C(=O)N1)c1ccccc1-c1ccccc12 (centres undefined) > 10 µM (inactive)

* * *

- Test system: OVCAR-3
- protocolSummary: NCI tumour cell line growth inhibition, 48 h
Activity calls are given as the source filed them. Cut-off read from the data, not from the text of the source: active = GI50 up to about 1.1 µM and inactive = higher.
Consider the following compounds; for each one, report its GI50.

Using the record for CC(=O)N1c2ccccc2C2=NN(C)C(=N)SC21 (centres undefined) , report its GI50. 13.8 µM (inactive)

Follow-up item: Cc1ccc(/N=N/C(=N\c2ccc(F)cc2)c2ccc(N(CCC#N)CCC#N)cc2)cc1 86.3 µM (inactive)

And CCCCCCCCCCCCCCCCCCOCC(O)COP(=O)(O)OCC1OC(n2ccc(N)nc2=O)C(O)C1O (centres undefined) ? 43.5 µM (inactive)

Continue with O=C(O)COc1ccc(C(=O)/C(SS/C(C(=O)c2ccc(OCC(=O)O)c(Cl)c2Cl)=C2\C=C(c3ccc(Cl)cc3)SS2)=C2/C=C(c3ccc(Cl)cc3)SS2)c(Cl)c1Cl 5.37 µM (inactive)

Next up: CCN1c2ccccc2-n2c(C)nnc2-c2c(-c3ccccc3)n[nH]c21 36.4 µM (inactive)

Input CN(C)CCOC1(CC2CCCCC2)CCC(C(C)(C)C)CC1 (centres undefined) 7.53 µM (inactive)

Then this compound: CCCOC(=O)NC(C)C(=O)NC(CCC(=O)NC(CCCC(N)C(=O)O)C(=O)NC(C)C(=O)O)C(=O)O (centres undefined) 80.9 µM (inactive)

CN(C)C(=S)Oc1ccc2ccc(=O)oc2c1 ? > 100 µM (inactive)

Now try CCCCOc1c(C(=O)O)cc(Br)cc1C(=O)O . > 100 µM (inactive)
